- Measurement Target: fusion protein PRD
- Sequence (chain, as listed by the source): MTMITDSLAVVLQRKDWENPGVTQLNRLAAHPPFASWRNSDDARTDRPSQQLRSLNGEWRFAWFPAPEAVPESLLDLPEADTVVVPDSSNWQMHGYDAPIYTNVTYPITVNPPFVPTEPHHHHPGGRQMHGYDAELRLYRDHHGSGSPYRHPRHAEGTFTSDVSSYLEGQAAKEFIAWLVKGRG

| Protein | relative cleavage efficiency |
| --- | --- |
| OmpT protease variant OmpT D97Y (protein) STETLSFTPDNINADISLGTLSGKTKERVYLAEEGGRKVSQLDWKFNNAAIIKGAINWDLMPQISIGAAGWTTLGSRGGNMVDQDWMDSSNPGTWTYESRHPDTQLNYANEFDLNIKGWLLNEPNYRLGLMAGYQESRYSFTARGGSYIYSSEEGFRDDIGSFPNGERAIGYKQRFKMPYIGLTGSYRYEDFELGGTFKYSGWVESSDNDEHYDPGKRITYRSKVKDQNYYSVAVNAGYYVTPNAKVYVEGAWNRVTNKKGNTSLYDHNNNTSDYSKNGAGIENYNFITTAGLKYTF | less than 3.0% |
| OmpT protease variant OmpT D97R (protein) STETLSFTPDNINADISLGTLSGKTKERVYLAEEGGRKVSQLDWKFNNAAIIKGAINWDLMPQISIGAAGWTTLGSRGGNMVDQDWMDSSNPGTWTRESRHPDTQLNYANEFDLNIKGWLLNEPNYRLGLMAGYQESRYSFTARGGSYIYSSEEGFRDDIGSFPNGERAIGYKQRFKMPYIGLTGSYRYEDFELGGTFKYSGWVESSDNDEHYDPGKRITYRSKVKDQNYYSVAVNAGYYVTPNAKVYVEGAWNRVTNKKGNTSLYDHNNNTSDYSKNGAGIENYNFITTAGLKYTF | less than 3.0% |
| OmpT protease variant OmpT D97M (protein) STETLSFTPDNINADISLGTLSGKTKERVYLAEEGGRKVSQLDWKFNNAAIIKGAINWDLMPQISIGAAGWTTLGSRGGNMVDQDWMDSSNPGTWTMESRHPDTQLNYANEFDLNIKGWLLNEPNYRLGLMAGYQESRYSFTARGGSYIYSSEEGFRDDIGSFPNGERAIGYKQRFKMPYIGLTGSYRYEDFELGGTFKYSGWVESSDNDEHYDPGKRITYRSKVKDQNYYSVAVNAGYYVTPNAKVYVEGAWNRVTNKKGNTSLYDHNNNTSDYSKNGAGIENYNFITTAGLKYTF | less than 3% |
| OmpT protease (wild-type, E. coli mature OmpT protease) (protein) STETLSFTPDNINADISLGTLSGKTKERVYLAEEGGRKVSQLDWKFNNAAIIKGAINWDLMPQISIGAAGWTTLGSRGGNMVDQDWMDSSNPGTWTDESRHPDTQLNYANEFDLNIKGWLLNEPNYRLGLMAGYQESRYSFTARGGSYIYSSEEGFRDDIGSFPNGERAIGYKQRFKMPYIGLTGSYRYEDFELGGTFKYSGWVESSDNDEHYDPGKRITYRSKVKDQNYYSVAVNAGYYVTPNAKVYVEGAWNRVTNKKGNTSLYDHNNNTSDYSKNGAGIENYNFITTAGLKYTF | less than 3% |

FYI, the data here is from patent US20070077617.
